observable: melting point (°C)

compound	melting point [°C]
CCCCC(C)COc1ccc(-c2ccc(-c3ccc(-c4ccc(OCC(C)CCCC)cc4)s3)s2)cc1 (stereo not shown) [6(2Me)-O-PTTP-O-6(2Me)]	197
CCCCCC(C)Oc1ccc(-c2ccc(-c3ccc(-c4ccc(OC(C)CCCCC)cc4)s3)s2)cc1 (stereo not shown) [6(1Me)-O-PTTP-O-6(1Me)]	143
CC(C)CCCC(C)CCOc1ccc(-c2ccc(-c3ccc(-c4ccc(OCCC(C)CCCC(C)C)cc4)s3)s2)cc1 (stereo not shown) [8(3,7Me)-O-PTTP-O-8(3,7Me)]	192
CC(C)CCCOc1ccc(-c2ccc(-c3ccc(-c4ccc(OCCCC(C)C)cc4)s3)s2)cc1 [5(4Me)-O-PTTP-O-5(4Me)]	250

I. CCCCCCOc1ccc(-c2ccc(-c3ccc(-c4ccc(OCCCCCC)cc4)s3)s2)cc1 [6-O-PTTP-O-6]
II. CCCCC(CC)COc1ccc(-c2ccc(-c3ccc(-c4ccc(OCC(CC)CCCC)cc4)s3)s2)cc1 (stereo not shown) [6(2Et)-O-PTTP-O-6(2Et)]
Data request: When the recorded melting point values are compared, which is smaller: that of I or that of II ? When you have decided, please share the label of that item.
Data returned: II
(II: 148 °C, I: 243 °C)
